meta.source: ChEMBL document CHEMBL1140501

Below are pIC50 values measured for Aldo-keto reductase family 1 member B1 (Homo sapiens).
# reply with the number alone; pIC50 is -log10 of concentration in mol/L

Below: 5 compounds and their reported pIC50.
Q: Quick one: pIC50 of O=C(O)COc1ccccc1C(=O)NCc1ccc(Br)cc1F ?
Ans: 6.75

Q: Next entry: O=C(O)Cc1ccccc1 [PHENYLACETIC ACID]
Ans: 4.02

Q: Next entry: O=C(O)COc1cc(F)ccc1C(=S)NCc1ccc(Br)cc1F
Ans: 7.52

Q: Next entry: O=C1C[C@@]2(C(=O)N1)C(=O)N(Cc1ccc(Br)cc1F)C(=O)c1cccn12
Ans: 7.82

Q: Next entry: O=C1C[C@]2(C(=O)N1)C(=O)N(Cc1ccc(Br)cc1F)C(=O)c1cccn12
Ans: 6.72

Read the next record carefully.
Q: Quick one: pIC50 of O=C(O)Cc1nn(Cc2ccc(Br)cc2F)c(=O)c2ccccc12 [PONALRESTAT] ?
Ans: 7.25
